Give measured kon for each item. Keep answers brief.
# tgt: T1, human Tumour Necrosis Factor alpha (hTNFα) (human, UniProt P01375 77-233)
# T1 construct: Coated on ELISA plates, amine-coupled to the BIAcore chip, or biotinylated on Octet streptavidin sensors; soluble in the L929 assay; also called rhTNFα; hTNF-alpha
# assay_summary: kinetics on hTNFα, Table 1 (instrument for Ka/Kd not stated)
Number plus unit, in that order.

Could I get kon for every one of these entries?
1. TNF VNAR D1-BA11-B4 (VNAR, Tandem VNAR trimer with His and myc tags) ARVDQTPQTITKETGESLTINCVLRDSHCATSSTYWYRKKSGSTNEESISKGGRYVETVNSGSKSFSLRINDLTVEDSGTYRCASECQYGLAEYDVYGGGTVVTVNGGGGSGGGGSGGGGSGGGGSGAHSTRVDQSPSSLSASVGDRVTITCVLTDTSYPLYSTYWYRKNPGSSNKEQISISGRYSESVNKGTKSFTLTISSLQPEDSATYYCRAMSTNIWTGDGAGTKVEIKGGGGSGGGGSGGGGSGGGGSGAHSARVDQTPQTITKETGESLTINCVLRDSNCALSSMYWYRKKSGSTNEESISKGGRYVETVNSGSKSFSLRINDLTVEDSGTYRCKVYIPCIDELVYMISGGTSGPIHDVYGGGTVVTVNHHHHHHHEQKLISEEDL
2. TNF VNAR D1-BA11-D1 (VNAR, Tandem VNAR trimer with His and myc tags) ARVDQTPQTITKETGESLTINCVLRDSHCATSSTYWYRKKSGSTNEESISKGGRYVETVNSGSKSFSLRINDLTVEDSGTYRCASECQYGLAEYDVYGGGTVVTVNGGGGSGGGGSGGGGSGGGGSGAHSTRVDQSPSSLSASVGDRVTITCVLTDTSYPLYSTYWYRKNPGSSNKEQISISGRYSESVNKGTKSFTLTISSLQPEDSATYYCRAMSTNIWTGDGAGTKVEIKGGGGSGGGGSGGGGSGGGGSGAHSARVDQTPQTITKETGESLTINCVLRDSHCATSSTYWYRKKSGSTNEESISKGGRYVETVNSGSKSFSLRINDLTVEDSGTYRCASECQYGLAEYDVYGGGTVVTVNHHHHHHHEQKLISEEDL
3. TNF VNAR DIMER D1-B4 (VNAR) ARVDQTPQTITKETGESLPINCVLRDSHCATSSTYWYRKKSGSTNEESISKGGRYVETVNSGSKSFSLRINDLTVEDSGTYRCASECQYGLAEYDVYGGGTVVTVNGGGGSGGGGGSGAHSARVDQTPQTITKETGESLTINCVLRDSNCALSSMYWYRKKSGSTNEESISKGGRYVETVNSGSKSFSLRINDLTVEDSGTYRCKVYIPCIDELVYMISGGTSGPIHDVYGGGTVVTVNAAAHHHHHHGAAEQKLISEEDL
4. TNF VNAR DIMER D1-D1 (VNAR) ARVDQTPQTITKETGESLTINCVLRDSHCATSSTYWYRKKSGSTNEESISKGGRYVETVNSGSKSFSLRINDLTVEDSGTYRCASECQYGLAEYDVYGGGTVVTVNGGGGSGGGGGSGAHSARVDQTPQTITKETGESLTINCVLRDSHCATSSTYWYRKKSGSTNEESISKGGRYVETVNSGSKSFSLRINDLTVEDSGTYRCASECQYGLAEYDVYGGGTVVTVNAAAHHHHHHGAAESKLISEEDL

["1.7e+06 M⁻¹ s⁻¹", "1.9e+06 M⁻¹ s⁻¹", "270000 M⁻¹ s⁻¹", "500000 M⁻¹ s⁻¹"]
